test system: T. brucei cells; test: AlamarBlue cell viability / growth inhibition of T. brucei; settings: Trypanosoma brucei, 72 h, read-out: EC50 (T. brucei), 0.5-50 μM, 72 h, AlamarBlue; inhibitor vs. normalized response, variable slope (Fig. 3f)
MEASUREMENT LABEL: EC50 (µM)
# number only, unit µM dropped from output

Q: Return value of EC50 for input "Cc1ccc(C(=O)Nc2ccc(Cl)c(Cl)c2)cc1S(=O)(=O)Nc1ccc(Cl)c(Cl)c1" , no commentary.
A: 6.54

----------
target: TbRPA1 DBD-AB (Trypanosoma brucei brucei, UniProt Q384B5); test: MST inhibition of ssDNA-binding activity, TbRPA1 DBD-AB; settings: dT32, 30 nM protein, 4-PL
Sequence (Q384B5 entry or part of it): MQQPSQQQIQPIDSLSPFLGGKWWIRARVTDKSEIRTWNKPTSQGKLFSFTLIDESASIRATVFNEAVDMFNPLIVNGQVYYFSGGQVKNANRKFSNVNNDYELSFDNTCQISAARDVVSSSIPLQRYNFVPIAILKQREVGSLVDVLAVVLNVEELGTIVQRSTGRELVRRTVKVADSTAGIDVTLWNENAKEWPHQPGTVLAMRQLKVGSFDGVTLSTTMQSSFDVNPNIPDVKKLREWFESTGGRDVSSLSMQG
MEASUREMENT LABEL: IC50 (nM)
Kindly provide the numeric value in nM only, without the unit symbol.

Q: Tell me IC50 reported for "Cc1ccc(C(=O)Nc2ccc(Cl)c(Cl)c2)cc1S(=O)(=O)Nc1ccc(Cl)c(Cl)c1"
A: 228

----------
target: TcRPA1 DBD-AB T105S (Trypanosoma cruzi, UniProt Q4DXC9, T105S); test: MST inhibition of ssDNA-binding activity, TcRPA1 DBD-AB T105S mutant
MEASUREMENT LABEL: pIC50
Conceptually, pIC50 converts a concentration in mol/L into minus its log10.

Q: Give the reported pIC50 for this molecule. Cc1ccc(C(=O)Nc2ccc(Cl)c(Cl)c2)cc1S(=O)(=O)Nc1ccc(Cl)c(Cl)c1 [JC-229]
A: 3.80

----------
molecular target: TbRPA complex (Trypanosoma brucei brucei, UniProt Q384B5); assay: MST inhibition of ssDNA-binding activity, TbRPA complex; design: species or system T. brucei; conditions: dT32, 25 nM complex, MST (Fig. 5d)
Sequence (Q38DK0 entry or part of it): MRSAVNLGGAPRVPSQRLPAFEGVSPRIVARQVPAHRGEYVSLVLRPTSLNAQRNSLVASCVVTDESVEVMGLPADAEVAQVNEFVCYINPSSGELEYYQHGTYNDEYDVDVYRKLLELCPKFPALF
Sequence (Q57ZN9 entry or part of it, further chain): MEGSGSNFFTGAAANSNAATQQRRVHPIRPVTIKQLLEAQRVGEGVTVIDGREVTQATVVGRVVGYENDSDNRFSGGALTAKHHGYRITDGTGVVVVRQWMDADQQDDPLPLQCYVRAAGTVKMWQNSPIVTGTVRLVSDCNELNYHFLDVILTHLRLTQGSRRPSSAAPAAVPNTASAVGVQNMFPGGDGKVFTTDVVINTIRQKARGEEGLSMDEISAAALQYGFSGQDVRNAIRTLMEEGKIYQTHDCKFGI
Sequence (Q384B5 entry or part of it): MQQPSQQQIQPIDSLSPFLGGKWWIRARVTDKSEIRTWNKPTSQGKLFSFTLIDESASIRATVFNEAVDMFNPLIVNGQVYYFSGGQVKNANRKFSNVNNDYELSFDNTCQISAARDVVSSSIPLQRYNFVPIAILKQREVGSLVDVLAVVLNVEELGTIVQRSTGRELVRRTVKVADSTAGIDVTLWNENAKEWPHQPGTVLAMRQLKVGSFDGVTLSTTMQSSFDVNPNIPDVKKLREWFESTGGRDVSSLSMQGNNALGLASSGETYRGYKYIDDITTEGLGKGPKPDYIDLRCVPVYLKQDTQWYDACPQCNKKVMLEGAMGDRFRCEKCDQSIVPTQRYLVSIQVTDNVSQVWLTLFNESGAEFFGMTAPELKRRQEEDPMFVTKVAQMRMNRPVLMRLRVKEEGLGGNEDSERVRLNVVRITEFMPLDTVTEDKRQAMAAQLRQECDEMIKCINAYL
MEASUREMENT LABEL: IC50 (µM)
Use µM as the unit, but write only the number.

Q: Please report the measured IC50 for "Cc1ccc(C(=O)Nc2ccc(Cl)c(Cl)c2)cc1S(=O)(=O)Nc1ccc(Cl)c(Cl)c1"
A: 0.0245

----------
system: T. brucei TbRPA1 sKO cells; experiment: AlamarBlue cytotoxicity on TbRPA1 single knock-out (sKO) T. brucei cells; settings: read-out: EC50, single KO (∆/WT); 72 h; [Inhibitor] vs. norm response, variable slope
MEASUREMENT LABEL: EC50 (µM)
Record the value in µM, omitting the unit from your answer.

Q: Give the value of EC50 reported for the following: Cc1ccc(C(=O)Nc2ccc(Cl)c(Cl)c2)cc1S(=O)(=O)Nc1ccc(Cl)c(Cl)c1 [JC-229]
A: 5

----------
molecular target: TbRPA1 DBD-AB (Trypanosoma brucei brucei, UniProt Q384B5); test: MST inhibition of ssDNA-binding activity, TbRPA1 DBD-AB; conditions: dT12, 30 nM protein, 4-PL
MEASUREMENT LABEL: IC50 (nM)
Report the figure in nM without appending any unit label.

Q: Look up IC50 of Cc1ccc(C(=O)Nc2ccc(Cl)c(Cl)c2)cc1S(=O)(=O)Nc1ccc(Cl)c(Cl)c1 [JC-229] and report it.
A: 2800

----------
tested on: T. brucei TbRPA1 sKO cells; assay: AlamarBlue cytotoxicity on TbRPA1 single knock-out (sKO) T. brucei cells; settings: Trypanosoma brucei, 72 h, read-out: EC50, single KO (∆/WT), 72 h; [Inhibitor] vs. norm response, variable slope
MEASUREMENT LABEL: EC50

Q: For the compound "Cc1ccc(C(=O)Nc2ccc(Cl)c(Cl)c2)cc1S(=O)(=O)Nc1ccc(Cl)c(Cl)c1" , give its reported EC50.
A: 4.93 µM
